# PROCEDURE DETAILS: Preliminary brain PK study
# Type: in vivo
# CONDITION INFO: mouse, mice, brain tissue, Table 5, route and dose not given
MEASURED ATTRIBUTE: AUC(0-t) (ng·h/mL)

COMPOUND	MEASURED NUMBER
COc1cc(Nc2nccc(Nc3cccnc3-c3ccccn3)n2)ccc1N1CCN(C)CC1 [Compound 2]	10300

###

# PROCEDURE DETAILS: Pharmacokinetics and relative bioavailability after a single oral dose (two liquid formulations, powder in capsule)
# Type: in vivo, male Beagle dogs
# CONDITION INFO: male, Beagle, dog, plasma, po, 5 mg/kg, Formulation #1 (Table 43), 5 mg/kg oral, male Beagle dogs, plasma, Mean; read-out: Cmax
# Source text: The purpose of the study is to dose two suspension formulations of Compound 2 at two dose levels by gavage to Beagle dogs and to collect blood samples for the determination of plasma concentrations, derivation of pharmacokinetic parameters and to determine the relative bioavailability of the two suspension formulations. […]

COMPOUND STRUCTURE STRING	Cmax [ng/mL]
COc1cc(Nc2nccc(Nc3cccnc3-c3ccccn3)n2)ccc1N1CCN(C)CC1	27.8

###

# PROCEDURE DETAILS: Approximate solubility of freebase in 12 solvents at RT
# Type: physicochemical
# CONDITION INFO: organic solvent or mixture, thermodynamic from solid, MIBK

COMPOUND	solubility
COc1cc(Nc2nccc(Nc3cccnc3-c3ccccn3)n2)ccc1N1CCN(C)CC1 [Freebase Form A]	1900 to 3800 µg/mL

###

# PROCEDURE DETAILS: IV and PO plasma pharmacokinetics in rats
# Type: in vivo
# CONDITION INFO: Sprague-Dawley, rat, fasted female SD rats, 20 mg/kg PO vs 2 mg/kg IV, read-out: Oral Bioavailability (% F)

COMPOUND STRUCTURE STRING	bioavailability, %
COc1cc(Nc2nccc(Nc3cccnc3-c3ccccn3)n2)ccc1N1CCN(C)CC1	60.8

###

# PROCEDURE DETAILS: Pharmacokinetics and relative bioavailability after a single oral dose (two liquid formulations, powder in capsule)
# Type: in vivo, male Beagle dogs
# CONDITION INFO: male, Beagle, dog, plasma, po, 5 mg/kg, beagle dogs, range across formulations at both doses (2 and 5 mg/kg)

MOLECULE	Tmax
COc1cc(Nc2nccc(Nc3cccnc3-c3ccccn3)n2)ccc1N1CCN(C)CC1 [Compound 2]	3 to 4.7 h

###

# PROCEDURE DETAILS: Pharmacokinetics and relative bioavailability after a single oral dose (two liquid formulations, powder in capsule)
# Format: in vivo, male Beagle dogs
# CONDITION INFO: male, Beagle, dog, plasma, po, 2 mg/kg, Formulation #1 (Table 43), 2 mg/kg oral, male Beagle dogs, plasma, individual dog; read-out: Cmax
MEASURED ATTRIBUTE: Cmax (ng/mL)

COMPOUND STRUCTURE STRING	MEASURED NUMBER
COc1cc(Nc2nccc(Nc3cccnc3-c3ccccn3)n2)ccc1N1CCN(C)CC1	4.37

###

# PROCEDURE DETAILS: Pharmacokinetics and relative bioavailability after a single oral dose (two liquid formulations, powder in capsule)
# Assay type: in vivo, male Beagle dogs
# CONDITION INFO: male, Beagle, dog, plasma, po, 5 mg/kg, Formulation #2 (Table 44), 5 mg/kg oral, male Beagle dogs, plasma, Mean; read-out: AUC0-TLast
MEASURED ATTRIBUTE: AUC(0-t)

COMPOUND	MEASURED ATTRIBUTE	RESULT
COc1cc(Nc2nccc(Nc3cccnc3-c3ccccn3)n2)ccc1N1CCN(C)CC1 [Compound 2]	AUC(0-t)	211 ng·h/mL

Reference source for all entries: patent US11040038B2
